For each of the molecules below, state its AC50.
- experimentalSystem: Voltage-dependent L-type calcium channel subunit alpha-1C (Rattus norvegicus); also: assay procedure not described here
- Sequence (P22002 whole entry): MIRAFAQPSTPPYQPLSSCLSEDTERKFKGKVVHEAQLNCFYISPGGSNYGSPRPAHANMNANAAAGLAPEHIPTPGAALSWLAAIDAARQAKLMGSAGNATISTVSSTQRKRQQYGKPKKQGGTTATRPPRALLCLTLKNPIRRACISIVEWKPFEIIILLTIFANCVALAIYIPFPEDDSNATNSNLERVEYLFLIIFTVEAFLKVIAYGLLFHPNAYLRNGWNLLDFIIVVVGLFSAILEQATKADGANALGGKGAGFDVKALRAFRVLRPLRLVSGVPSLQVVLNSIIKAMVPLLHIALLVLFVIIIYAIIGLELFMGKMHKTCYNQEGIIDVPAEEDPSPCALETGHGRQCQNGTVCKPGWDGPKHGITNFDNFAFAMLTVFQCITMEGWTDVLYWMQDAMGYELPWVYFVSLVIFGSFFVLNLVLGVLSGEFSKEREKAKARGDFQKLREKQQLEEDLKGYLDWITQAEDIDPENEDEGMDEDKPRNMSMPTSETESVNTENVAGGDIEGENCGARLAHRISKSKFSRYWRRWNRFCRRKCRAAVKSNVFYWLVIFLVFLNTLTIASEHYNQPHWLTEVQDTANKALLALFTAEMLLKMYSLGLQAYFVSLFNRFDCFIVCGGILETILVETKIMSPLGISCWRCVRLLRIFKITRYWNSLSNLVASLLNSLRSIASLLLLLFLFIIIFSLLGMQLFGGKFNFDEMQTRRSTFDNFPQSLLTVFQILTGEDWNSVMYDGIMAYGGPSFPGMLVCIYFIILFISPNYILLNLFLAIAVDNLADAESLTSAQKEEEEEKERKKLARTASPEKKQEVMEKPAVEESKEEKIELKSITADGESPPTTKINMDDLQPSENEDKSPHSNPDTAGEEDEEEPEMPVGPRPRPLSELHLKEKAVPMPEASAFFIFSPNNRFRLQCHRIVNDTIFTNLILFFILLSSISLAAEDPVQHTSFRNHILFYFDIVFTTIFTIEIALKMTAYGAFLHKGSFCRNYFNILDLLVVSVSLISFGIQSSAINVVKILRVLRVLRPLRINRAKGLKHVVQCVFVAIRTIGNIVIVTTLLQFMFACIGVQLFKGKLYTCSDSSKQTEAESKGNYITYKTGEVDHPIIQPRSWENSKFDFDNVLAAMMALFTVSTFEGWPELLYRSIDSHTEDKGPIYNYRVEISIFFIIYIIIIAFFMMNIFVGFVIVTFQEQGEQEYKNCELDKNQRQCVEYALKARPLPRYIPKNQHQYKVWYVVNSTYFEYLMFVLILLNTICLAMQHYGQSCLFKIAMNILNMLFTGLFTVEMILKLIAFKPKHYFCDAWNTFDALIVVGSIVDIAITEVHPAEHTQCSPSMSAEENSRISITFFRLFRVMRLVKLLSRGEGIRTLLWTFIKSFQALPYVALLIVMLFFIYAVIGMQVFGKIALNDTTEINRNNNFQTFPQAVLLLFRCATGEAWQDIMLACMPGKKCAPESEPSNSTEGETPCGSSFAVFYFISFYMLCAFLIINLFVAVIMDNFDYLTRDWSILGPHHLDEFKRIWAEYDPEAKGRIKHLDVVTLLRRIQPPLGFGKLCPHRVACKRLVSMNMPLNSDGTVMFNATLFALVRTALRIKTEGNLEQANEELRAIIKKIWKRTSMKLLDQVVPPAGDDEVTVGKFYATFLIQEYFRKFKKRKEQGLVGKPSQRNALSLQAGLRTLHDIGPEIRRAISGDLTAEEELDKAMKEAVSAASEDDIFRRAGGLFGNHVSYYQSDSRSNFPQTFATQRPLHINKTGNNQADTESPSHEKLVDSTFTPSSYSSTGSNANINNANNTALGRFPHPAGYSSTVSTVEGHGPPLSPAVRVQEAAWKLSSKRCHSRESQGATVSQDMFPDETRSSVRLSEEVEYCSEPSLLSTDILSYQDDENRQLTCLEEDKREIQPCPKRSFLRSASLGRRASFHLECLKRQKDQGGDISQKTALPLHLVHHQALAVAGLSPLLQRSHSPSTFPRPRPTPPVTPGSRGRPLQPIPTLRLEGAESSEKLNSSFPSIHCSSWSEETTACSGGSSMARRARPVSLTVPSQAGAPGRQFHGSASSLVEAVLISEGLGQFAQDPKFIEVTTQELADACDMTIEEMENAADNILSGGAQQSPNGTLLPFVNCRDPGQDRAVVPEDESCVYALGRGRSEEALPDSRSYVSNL
- Format: functional

Query: Query (molecule): `CCc1c(Cl)c(O)c(Cl)c(O)c1C(=O)O[C@H]1[C@H](O)[C@H](OC)[C@H](OC/C2=C\C=C\C[C@H](O)/C(C)=C/[C@H](CC)[C@@H](O[C@@H]3OC(C)(C)[C@@H](OC(=O)C(C)C)[C@H](O)[C@@H]3O)/C(C)=C/C(C)=C/C[C@@H]([C@@H](C)O)OC2=O)O[C@@H]1C` ; field requested: AC50
Response: > 10 µM

Query: GET /values?readout=AC50&item= COc1ccccc1OCCNCC(O)c1ccc(C)c(S(N)(=O)=O)c1 (stereo unspecified)
Response: > 30 µM

Query: So what does the record say about AC50 for `CS(=O)(=O)c1ccc(C2=C(c3ccccc3)C(=O)OC2)cc1` ?
Response: > 10 µM

Query: // returns reported AC50 for input CCCC(=O)O[C@]1(C(=O)CO)CC[C@H]2[C@@H]3CCC4=CC(=O)CC[C@]4(C)[C@H]3[C@@H](O)C[C@@]21C [HYDROCORTISONE BUTYRATE]
Response: > 10 µM

Query: I am curious: what AC50 value has been reported for `CC/C(=C(\c1ccccc1)c1ccc(OCCN(C)C)cc1)c1ccccc1` ?
Response: > 10 µM

Query: Returns the measured AC50 for the input molecule. Input: CC1=C(C(=O)O)N2C(=O)[C@@H](NC(=O)[C@H](N)c3ccccc3)[C@H]2SC1 [CEPHALEXIN ANHYDROUS]
Response: > 10 µM

Query: Quick one: AC50 of `O=C(O)C[C@H](O)C[C@H](O)/C=C/c1c(C2CC2)nc2ccccc2c1-c1ccc(F)cc1` ?
Response: > 10 µM

Query: So what's the measured AC50 for this one? `Cc1cn([C@H]2C[C@H](N=[N+]=[N-])[C@@H](CO)O2)c(=O)[nH]c1=O`
Response: > 10 µM

Query: Which measured AC50 value corresponds to CCOc1ccccc1OCC1CNCCO1 (stereo unspecified) ?
Response: > 10 µM

Query: If you can, please state the reported AC50 value of `CCOC(=O)[N-]c1cn(N2CCOCC2)n[o+]1` .
Response: > 30 µM

Query: I would be grateful if you could share the reported AC50 for `Clc1ccc2nsnc2c1NC1=NCCN1` .
Response: > 10 µM

Query: Dear colleague, I am looking for the recorded AC50 of the following molecule: `CC[C@H]1[C@@H](O)[C@@H]2[C@H](CC[C@]3(C)[C@@H]([C@H](C)CCC(=O)O)CC[C@@H]23)[C@@]2(C)CC[C@@H](O)C[C@@H]12`
Response: > 30 µM

Query: Requested field: AC50. Item: `COC(=O)[C@H]1[C@H]2C[C@@H]3c4[nH]c5cc(OC)ccc5c4CCN3C[C@H]2C[C@@H](OC(=O)/C=C/c2cc(OC)c(OC)c(OC)c2)[C@@H]1OC`
Response: 5.16 µM

Query: Entry CCCC1O[C@@H]2C[C@H]3[C@@H]4CCC5=CC(=O)C=C[C@]5(C)[C@H]4[C@@H](O)C[C@]3(C)[C@]2(C(=O)CO)O1 (stereo partly specified) [BUDESONIDE] : reported AC50 = ?
Response: > 10 µM

Query: Find the recorded AC50 belonging to O=C(O)[C@H](CC(=O)N1C[C@H]2CCCC[C@H]2C1)Cc1ccccc1 [MITIGLINIDE] and report it.
Response: > 10 µM

Query: Quick one: AC50 for CN1C(=O)C(O)N=C(c2ccccc2Cl)c2cc(Cl)ccc21 (stereo unspecified) ?
Response: > 30 µM

###

AC50 tested on Growth hormone secretagogue receptor type 1 (Homo sapiens, UniProt Q92847): recorded values; also: assay procedure not described here
Sequence (Q92847 whole entry): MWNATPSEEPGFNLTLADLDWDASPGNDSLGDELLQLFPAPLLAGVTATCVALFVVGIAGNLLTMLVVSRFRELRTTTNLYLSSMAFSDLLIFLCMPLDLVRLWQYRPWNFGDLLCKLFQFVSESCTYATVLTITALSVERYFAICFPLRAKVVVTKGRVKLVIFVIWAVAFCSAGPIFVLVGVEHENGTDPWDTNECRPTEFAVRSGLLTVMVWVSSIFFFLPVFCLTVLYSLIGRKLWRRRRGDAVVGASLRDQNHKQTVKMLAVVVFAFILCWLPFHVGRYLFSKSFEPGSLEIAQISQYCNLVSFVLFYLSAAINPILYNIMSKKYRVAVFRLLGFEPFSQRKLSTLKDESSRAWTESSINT

Query: What reported AC50 corresponds to CC(C[N+](C)(C)C)OC(N)=O (stereo not drawn) on Growth hormone secretagogue receptor type 1 (Homo sapiens, UniProt Q92847)?
Response: > 10 µM

Query: Any idea what AC50 came out for CC1(C)O[C@@H]2C[C@H]3[C@@H]4CCC5=CC(=O)C=C[C@]5(C)[C@H]4[C@@H](O)C[C@]3(C)[C@]2(C(=O)CO)O1 [DESONIDE] on Growth hormone secretagogue receptor type 1 (Homo sapiens, UniProt Q92847)?
Response: > 10 µM

Query: Identify the measured AC50 of COc1ccccc1OCC(O)CN1CCN(CC(=O)Nc2c(C)cccc2C)CC1 (stereo not drawn) for Growth hormone secretagogue receptor type 1 (Homo sapiens, UniProt Q92847).
Response: > 30 µM

Query: Observed AC50 on Growth hormone secretagogue receptor type 1 (Homo sapiens, UniProt Q92847) for C1CCC(C(CC2CCCCN2)C2CCCCC2)CC1 (stereo not drawn) , please.
Response: 6.2 µM

Query: Can you look up AC50 on Growth hormone secretagogue receptor type 1 (Homo sapiens, UniProt Q92847) for COc1ccc(CCNCC(O)COc2cccc(C)c2)cc1OC (stereo not drawn) ?
Response: > 10 µM

Query: Form field: AC50 recorded for `O=C(O)CCCCCCCC(=O)O` with Growth hormone secretagogue receptor type 1 (Homo sapiens, UniProt Q92847) (enter value)
Response: > 10 µM

Query: Quick check: AC50 on Growth hormone secretagogue receptor type 1 (Homo sapiens, UniProt Q92847), item `O=C(O)C[C@H](O)C[C@H](O)/C=C/c1c(C2CC2)nc2ccccc2c1-c1ccc(F)cc1` ?
Response: > 10 µM

Query: Identify the measured AC50 of CC(=O)NCCCS(=O)(=O)O [ACAMPROSATE] for Growth hormone secretagogue receptor type 1 (Homo sapiens, UniProt Q92847).
Response: > 30 µM

Query: Given the entry `CC(C)C(=O)c1c(C(C)C)nn2ccccc12` , what AC50 was observed with Growth hormone secretagogue receptor type 1 (Homo sapiens, UniProt Q92847)?
Response: > 30 µM

Query: Which measured AC50 belongs to `CC(C)(C)c1cc(C(C)(C)C)c(NC(=O)c2c[nH]c3ccccc3c2=O)cc1O` , tested on Growth hormone secretagogue receptor type 1 (Homo sapiens, UniProt Q92847)?; also: assay procedure not described here
Response: > 30 µM

Query: Under Growth hormone secretagogue receptor type 1 (Homo sapiens, UniProt Q92847): AC50 value of CN(C)CC/C=C1\c2ccccc2CSc2ccccc21 [DOTHIEPIN] ?
Response: > 30 µM

Query: Item `COC(=O)[C@H]1[C@H]2C[C@@H]3c4[nH]c5cc(OC)ccc5c4CCN3C[C@H]2C[C@@H](OC(=O)/C=C/c2cc(OC)c(OC)c(OC)c2)[C@@H]1OC` with Growth hormone secretagogue receptor type 1 (Homo sapiens, UniProt Q92847) - AC50?
Response: > 10 µM

Query: What reported AC50 corresponds to `C=CCN1C[C@H](C(=O)N(CCCN(C)C)C(=O)NCC)C[C@@H]2c3cccc4[nH]cc(c34)C[C@H]21` on Growth hormone secretagogue receptor type 1 (Homo sapiens, UniProt Q92847)?
Response: > 10 µM

Query: What value of AC50 on Growth hormone secretagogue receptor type 1 (Homo sapiens, UniProt Q92847) does `Nc1nc(Cl)nc2c1ncn2[C@H]1C[C@H](O)[C@@H](CO)O1` have?
Response: > 30 µM

Query: Look up AC50 with Growth hormone secretagogue receptor type 1 (Homo sapiens, UniProt Q92847) for this molecule: NC(=O)CN1CC(O)CC1=O (stereo not drawn)
Response: > 30 µM

Query: Please tell me: AC50 of COc1ccc(CCN(C)CCCC(C#N)(c2cc(OC)c(OC)c(OC)c2)C(C)C)cc1OC (stereo not drawn) , system Growth hormone secretagogue receptor type 1 (Homo sapiens, UniProt Q92847)?; also: assay procedure not described here
Response: > 30 µM

Query: // fetch Growth hormone secretagogue receptor type 1 (Homo sapiens, UniProt Q92847) AC50 for `C[C@H]1COc2c(C3(N)CC3)c(F)cc3c(=O)c(C(=O)O)cn1c23`
Response: > 10 µM

Query: Please provide the recorded AC50 for O=P1(NCCCl)OCCCN1CCCl (stereo not drawn) [IFOSFAMIDE] , tested on Growth hormone secretagogue receptor type 1 (Homo sapiens, UniProt Q92847). Also: assay procedure not described here.
Response: > 30 µM

Query: Fill in the recorded AC50 for this molecule, with Growth hormone secretagogue receptor type 1 (Homo sapiens, UniProt Q92847) as test system: `CC[C@H]1OC(=O)[C@H](C)[C@@H](O[C@H]2C[C@@](C)(OC)[C@@H](O)[C@H](C)O2)[C@H](C)[C@@H](O[C@@H]2O[C@H](C)C[C@H](N(C)C)[C@H]2O)[C@](C)(O)C[C@@H](C)CN(C)[C@H](C)[C@@H](O)[C@]1(C)O`
Response: > 30 µM

Query: Recall the recorded AC50 for `Nc1nc(/C(=C/CC(=O)O)C(=O)N[C@@H]2C(=O)N3C(C(=O)O)=CCS[C@H]23)cs1` with Growth hormone secretagogue receptor type 1 (Homo sapiens, UniProt Q92847) and state it.
Response: > 30 µM

Query: Request - read-out AC50 | tested on Growth hormone secretagogue receptor type 1 (Homo sapiens, UniProt Q92847) | molecule `CN(C)CCC=C1c2ccccc2C=Cc2ccccc21`; also: assay procedure not described here
Response: > 30 µM

Query: Can you look up AC50 on Growth hormone secretagogue receptor type 1 (Homo sapiens, UniProt Q92847) for `CO[C@H]1C[C@@H]2CC[C@@H](C)[C@@](O)(O2)C(=O)C(=O)N2CCCC[C@H]2C(=O)O[C@H]([C@H](C)C[C@@H]2CC[C@@H](O)[C@H](OC)C2)CC(=O)[C@H](C)/C=C(\C)[C@@H](O)[C@@H](OC)C(=O)[C@H](C)C[C@H](C)/C=C/C=C/C=C/1C` ?
Response: > 30 µM

Query: Lookup: AC50 / Growth hormone secretagogue receptor type 1 (Homo sapiens, UniProt Q92847) / CC1(C)NC(=O)N(c2ccc([N+](=O)[O-])c(C(F)(F)F)c2)C1=O [NILUTAMIDE]
Response: > 30 µM

Query: Query the reported AC50 for Growth hormone secretagogue receptor type 1 (Homo sapiens, UniProt Q92847); item: `C#C[C@]1(O)CC[C@H]2[C@@H]3CCC4=Cc5oncc5C[C@]4(C)[C@H]3CC[C@@]21C`
Response: > 10 µM

Query: Hi! What's the reported AC50 for `CN1C(=O)OC(C)(C)C1=O` on Growth hormone secretagogue receptor type 1 (Homo sapiens, UniProt Q92847)?
Response: > 10 µM

Query: # returns recorded AC50 (system: Growth hormone secretagogue receptor type 1 (Homo sapiens, UniProt Q92847)) for `C=CCC1(CC(C)C)C(=O)NC(=O)NC1=O`; also: assay procedure not described here
Response: > 10 µM

Query: Form: Entry = C=CCc1ccccc1OCC(O)CNC(C)C (stereo not drawn) | System = Growth hormone secretagogue receptor type 1 (Homo sapiens, UniProt Q92847) | AC50 = ____; also: assay procedure not described here
Response: > 30 µM

Query: Find the measured AC50: item CCC(C)n1ncn(-c2ccc(N3CCN(c4ccc(OCC5COC(Cn6cncn6)(c6ccc(Cl)cc6Cl)O5)cc4)CC3)cc2)c1=O (stereo not drawn) , target or system Growth hormone secretagogue receptor type 1 (Homo sapiens, UniProt Q92847). Also: assay procedure not described here.
Response: > 30 µM

Query: Value wanted: AC50 (Growth hormone secretagogue receptor type 1 (Homo sapiens, UniProt Q92847)) of entry `CCOC(=O)[C@H](CCc1ccccc1)N[C@@H](C)C(=O)N1C(=O)N(C)C[C@H]1C(=O)O`
Response: > 30 µM

Query: Recorded AC50 for `NCC(=O)CCC(=O)O` with Growth hormone secretagogue receptor type 1 (Homo sapiens, UniProt Q92847), please?
Response: > 30 µM

Query: Item: `CCC(CC)(CC(=O)Nc1cccc(/C=C/c2nc(C3CCC3)cs2)c1)C(=O)O` Test system: Growth hormone secretagogue receptor type 1 (Homo sapiens, UniProt Q92847) Read-out: AC50 Value: ?; also: assay procedure not described here
Response: > 30 µM

Query: # returns recorded AC50 (system: Growth hormone secretagogue receptor type 1 (Homo sapiens, UniProt Q92847)) for `Cc1nnc2n1-c1ccc(Cl)cc1C(c1ccccc1Cl)=NC2`; also: assay procedure not described here
Response: > 30 µM

Query: Lab note: need AC50 for `CCCCc1ncc(/C=C(\Cc2cccs2)C(=O)O)n1Cc1ccc(C(=O)O)cc1` on Growth hormone secretagogue receptor type 1 (Homo sapiens, UniProt Q92847), anyone have it?
Response: > 10 µM
